src = the RNAGym collection of RNA variant scans (doi:10.1002/anie.201605470)

B1: Osa-1-4 twister ribozyme (parent)
chain: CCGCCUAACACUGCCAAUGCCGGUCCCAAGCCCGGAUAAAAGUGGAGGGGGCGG

- Variants of: B1
- measurementDescription: self-cleavage, relative activity (ratio to wild type); higher = more cleavage; co-transcriptional
Rule: self-cleavage under 0.1 gives condition not met, otherwise condition met.

Consider the following illustrative entries.
> print(dat)
   mutationdescriptor      categorylabel
1           C32U G19U  condition not met
2           C15A G45A  condition not met
3            A7C C14G  condition not met

## Input Could you please find out whether C52U G53A has self-cleavage that meets 0.1 or exceeds it?
## Output condition met

## Input Could you please find out whether A8C G19C has self-cleavage that meets 0.1 or exceeds it?
## Output condition not met

## Input Could you please find out whether A46C U43A has self-cleavage that meets 0.1 or exceeds it?
## Output condition not met

## Input Could you please find out whether C21U U18G has self-cleavage that meets 0.1 or exceeds it?
## Output condition met

## Input Could you please find out whether A8U C52G has self-cleavage that meets 0.1 or exceeds it?
## Output condition met

## Input Could you please find out whether A10U G47C has self-cleavage that meets 0.1 or exceeds it?
## Output condition not met

## Input Could you please find out whether A36U G48A has self-cleavage that meets 0.1 or exceeds it?
## Output condition met

## Input Could you please find out whether G34U U12A has self-cleavage that meets 0.1 or exceeds it?
## Output condition met
